IC50 values, listed per item
- STUDY_SYSTEM: CRBN/DDB1 protein (Homo sapiens (Human), UniProt Q96SW2)
- Sequence (Q96SW2 whole entry, species assumed): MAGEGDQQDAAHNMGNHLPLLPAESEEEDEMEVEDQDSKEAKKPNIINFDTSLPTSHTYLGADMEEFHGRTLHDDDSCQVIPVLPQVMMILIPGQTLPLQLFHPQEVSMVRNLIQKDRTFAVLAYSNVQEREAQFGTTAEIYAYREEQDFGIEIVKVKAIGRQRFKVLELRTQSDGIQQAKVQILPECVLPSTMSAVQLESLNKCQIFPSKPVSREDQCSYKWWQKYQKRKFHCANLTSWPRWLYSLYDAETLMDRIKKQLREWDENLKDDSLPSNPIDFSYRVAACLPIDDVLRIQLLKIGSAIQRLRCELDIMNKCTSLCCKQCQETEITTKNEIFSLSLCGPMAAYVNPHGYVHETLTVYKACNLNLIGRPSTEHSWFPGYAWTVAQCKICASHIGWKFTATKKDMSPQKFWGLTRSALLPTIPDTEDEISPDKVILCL
- Sequence (Q16531 whole entry partner, species assumed): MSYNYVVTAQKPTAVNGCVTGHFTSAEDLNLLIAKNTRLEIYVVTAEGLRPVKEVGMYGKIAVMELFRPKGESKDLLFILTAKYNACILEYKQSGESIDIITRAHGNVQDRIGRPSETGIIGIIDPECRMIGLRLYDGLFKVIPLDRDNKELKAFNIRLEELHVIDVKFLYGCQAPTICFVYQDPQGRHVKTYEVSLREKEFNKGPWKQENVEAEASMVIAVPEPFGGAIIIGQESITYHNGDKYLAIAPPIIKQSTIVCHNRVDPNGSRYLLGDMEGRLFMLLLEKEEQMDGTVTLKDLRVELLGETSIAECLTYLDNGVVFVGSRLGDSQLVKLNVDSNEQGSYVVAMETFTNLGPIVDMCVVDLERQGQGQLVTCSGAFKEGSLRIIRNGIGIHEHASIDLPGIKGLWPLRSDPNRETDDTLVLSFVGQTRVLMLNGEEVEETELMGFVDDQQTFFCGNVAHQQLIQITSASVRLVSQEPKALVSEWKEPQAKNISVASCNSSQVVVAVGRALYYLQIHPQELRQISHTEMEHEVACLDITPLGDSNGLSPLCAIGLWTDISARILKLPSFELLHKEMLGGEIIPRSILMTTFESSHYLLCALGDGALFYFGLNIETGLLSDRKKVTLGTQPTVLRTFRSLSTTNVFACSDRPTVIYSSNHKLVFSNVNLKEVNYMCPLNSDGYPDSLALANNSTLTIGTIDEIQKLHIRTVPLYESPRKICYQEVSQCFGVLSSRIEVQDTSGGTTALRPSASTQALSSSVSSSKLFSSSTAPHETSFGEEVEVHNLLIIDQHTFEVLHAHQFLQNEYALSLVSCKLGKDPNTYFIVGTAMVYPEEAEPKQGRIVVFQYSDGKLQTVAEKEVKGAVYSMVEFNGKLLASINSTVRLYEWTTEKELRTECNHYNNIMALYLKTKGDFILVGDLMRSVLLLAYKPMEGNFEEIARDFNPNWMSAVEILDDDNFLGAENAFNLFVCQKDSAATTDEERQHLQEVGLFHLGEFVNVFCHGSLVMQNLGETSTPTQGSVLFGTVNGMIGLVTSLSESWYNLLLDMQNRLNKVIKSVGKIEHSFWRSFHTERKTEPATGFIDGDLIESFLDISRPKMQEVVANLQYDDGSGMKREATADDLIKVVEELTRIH
- PROCEDURE_SUMMARY: Inhibition of CRBN/DDB1 protein activity, fluorescence resonance energy transfer (FRET) method with FITC-labeled thalidomide analog
- CONDITION_SUMMARY: 5.0 nM CRBN/DDB1, 50.0 nM FITC-labeled thalidomide analog, 25° C., pH 7.0

Consider the following illustrative entries.
COMPOUND	IC50
O=C1CC2(CN(C(=O)c3c(C(=O)NC4CCCCC4)sc4ccccc34)C2)C(=O)N1 [Compound A7]	< 100 nM
O=C1CC2(CN(C(=O)c3csc4ccccc34)C2)C(=O)N1 [Compound A13]	1000 to 10000 nM
COC(=O)c1ccccc1C(=O)N1CC2(CC(=O)NC2=O)C1 [Compound A14]	100 to 1000 nM
O=C1CC2(CN(C(=O)c3c(C(=O)N4CCNCC4)sc4ccccc34)C2)C(=O)N1 [Compound A8]	< 100 nM
CN(C)C(=O)c1[nH]c2ccccc2c1C(=O)N1CC2(CC(=O)NC2=O)C1 [Compound A3]	< 100 nM

### Prompt Looking for the measured IC50 of CN(C)C(=O)c1sccc1C(=O)N1CC2(CC(=O)NC2=O)C1 [Compound A15] , can you help?
### Response 1000 to 10000 nM

### Prompt Looking for the measured IC50 of CN(C)C(=O)c1ccc(C(=O)N2CC3(CC(=O)NC3=O)C2)cc1 [Compound A4] , can you help?
### Response 1000 to 10000 nM

### Prompt Looking for the measured IC50 of O=C1CC2(CN(C(=O)c3c(C(=O)N4CC5(COC5)C4)sc4ccccc34)C2)C(=O)N1 [Compound A9] , can you help?
### Response < 100 nM
